Source listed as patent EP0092060A1.

# EXPERIMENT_DESCRIPTION: Pharmacokinetic parameters obtained in man, used to calculate the optimum hourly dose
# EXPERIMENTAL_CONTEXT: human, in vivo, read-out: elimination constant (Kel) (converted)
# maps each entry to its k el
Give just the numeric value; s⁻¹ need not be written.

- COMPOUND: "COc1ccc([C@@H]2Sc3ccccc3N(CCN(C)C)C(=O)[C@@H]2OC(C)=O)cc1"
  k el (s⁻¹): "3.42e-05"

Continue with the next compound.
Return reported k el; argument: CCN(CC)CCNC(=O)c1cc(S(C)(=O)=O)ccc1OC.Cl [Tiapride] 4.81e-05
